system: human soluble protein kinase VEGFR-3 (sVEGFR-3); experiment: VEGFR-3 kinase assay ([32P]ATP, poly(Glu:Tyr); Eurofins Panlabs); format: biochemical; conditions: peptides screened at 10 μM, 0.1 μg/ml enzyme, HEPES pH 7.4, 15 min preincubation 37°C, 10 μM ATP, [γ32P]ATP, 30 min, Figure 1B
Bridges are numbered along the chain shown (N, C = ends). Where no end group is shown, it is not given here.
Readout kind: inhibitory effects on VEGFR-3 kinase activity (%)

>>> numeric_value("CYYWQSKYC (disulfide 1-9 (inferred)) [P7]")
69
>>> numeric_value("CNYSHLFYC (disulfide 1-9 (inferred)) [P5]")
82
>>> numeric_value("CLTSSLRSC (disulfide 1-9 (inferred)) [P8]")
49
>>> numeric_value("CYYGQSKYC (disulfide 1-9 (inferred)) [P6]")
72
